target: T1, Recombinant Human DLL4 (R&D Systems Cat#1506-D4/CF) (human, UniProt Q9NR61 27-524); assay: ECL (Meso Scale Discovery) multispot binding assay, DLL4 immobilised, Fab at 100 nM
T1 construct: Bought recombinant protein; also called delta-like protein 4; Delta-like 4
Some binders, each annotated with its measured ECL signal.
measurementLabel: ECL signal

binder	experimentalValue
Fab VH5-51_IGHD5-18*01>3_IGHJ4*01 G100K/G104T (H:KT) & V3-4_IGLJ1*01 (Fab, V domains shown, Fab expressed in E. coli; Plasmid A adds CH1 with His6 and Flag tags to the heavy chain; Plasmid E adds lambda CL to the light chain; also called H:KT & L:wt; KT double mutant) VH: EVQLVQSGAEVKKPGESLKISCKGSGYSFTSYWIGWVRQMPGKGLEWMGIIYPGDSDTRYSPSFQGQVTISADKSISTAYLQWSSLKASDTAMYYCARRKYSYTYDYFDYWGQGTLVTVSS VL: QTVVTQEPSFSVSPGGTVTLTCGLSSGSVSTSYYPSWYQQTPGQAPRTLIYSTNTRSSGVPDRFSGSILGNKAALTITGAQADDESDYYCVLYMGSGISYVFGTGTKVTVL	9360
Fab VH5-51_IGHD5-18*01>3_IGHJ4*01 G100K/G104T (H:KT) & V3-4_IGLJ1*01 S32A (Fab, V domains shown, Fab expressed in E. coli; Plasmid A adds CH1 with His6 and Flag tags to the heavy chain; Plasmid E adds lambda CL to the light chain; also called G100K/G104T & S32A) VH: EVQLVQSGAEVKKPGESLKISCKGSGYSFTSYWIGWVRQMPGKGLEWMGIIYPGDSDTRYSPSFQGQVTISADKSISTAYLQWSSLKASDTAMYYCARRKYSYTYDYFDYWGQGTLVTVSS VL: QTVVTQEPSFSVSPGGTVTLTCGLSSGSVSTAYYPSWYQQTPGQAPRTLIYSTNTRSSGVPDRFSGSILGNKAALTITGAQADDESDYYCVLYMGSGISYVFGTGTKVTVL	10400
Fab VH5-51_IGHD5-18*01>3_IGHJ4*01 G100K/G104T (H:KT) & V3-4_IGLJ1*01 L24A (Fab, V domains shown, Fab expressed in E. coli; Plasmid A adds CH1 with His6 and Flag tags to the heavy chain; Plasmid E adds lambda CL to the light chain; also called G100K/G104T & L24A) VH: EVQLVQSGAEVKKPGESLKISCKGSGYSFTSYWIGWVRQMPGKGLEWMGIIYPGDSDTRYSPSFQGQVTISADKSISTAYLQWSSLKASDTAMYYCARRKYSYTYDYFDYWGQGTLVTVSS VL: QTVVTQEPSFSVSPGGTVTLTCGASSGSVSTSYYPSWYQQTPGQAPRTLIYSTNTRSSGVPDRFSGSILGNKAALTITGAQADDESDYYCVLYMGSGISYVFGTGTKVTVL	9630
